Cited source: paper PMC8119466

Assay Target: recombinant PRL-1 (Homo sapiens)
Construct: 6xHis (N, cleaved yes); made in house; host or cells: E. coli One Shot BL21 Star
Sequence (Q93096 whole entry): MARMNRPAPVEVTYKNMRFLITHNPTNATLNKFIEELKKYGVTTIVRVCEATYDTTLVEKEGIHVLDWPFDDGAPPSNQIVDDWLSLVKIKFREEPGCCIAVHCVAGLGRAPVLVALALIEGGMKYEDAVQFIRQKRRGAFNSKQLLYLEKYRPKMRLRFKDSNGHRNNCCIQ
Test Summary: In vitro phosphatase assay (DiFMUP hydrolysis), PRL-1
Type: biochemical
Setup Conditions: FDA-approved drug screen; compared to DMSO
Where a name gives a salt, the structure may show the parent alone.
Label 1 (yes) when % Phosphatase Activity (compared to DMSO) PRL-1 is at or above 90%; otherwise label 0 (no).

// known answers, use as guide
INSERT INTO results (compound, discrete_label) VALUES
  ('Cc1cc(C)c2c(c1)[C@@H](N(Cc1cc(C(F)(F)F)cc(C(F)(F)F)c1)c1nnn(C)n1)CCCN2C[C@H]1CC[C@H](C(=O)O)CC1', '0 (no)'),
  ('Cn1c(=O)c2c(ncn2CC2OCCO2)n(C)c1=O', '1 (yes)'),
  ('CNC(=O)c1ccccc1Sc1ccc2c(/C=C/c3ccccn3)n[nH]c2c1', '1 (yes)'),
  ('COc1cc(C(C)=O)ccc1OCCCN1CCC(c2noc3cc(F)ccc23)CC1', '1 (yes)'),
  ('COc1cc(Nc2c(C#N)cnc3cc(OCCCN4CCN(C)CC4)c(OC)cc23)c(Cl)cc1Cl [Bosutinib (SKI-606)]', '1 (yes)'),
  ('C=CC1=C(C(=O)O)N2C(=O)[C@@H](NC(=O)/C(=N\O)c3csc(N)n3)[C@H]2SC1', '1 (yes)'),
  ('O=C(O)c1cn(-c2ccc(F)cc2)c2cc(N3CCNCC3)c(F)cc2c1=O [Sarafloxacin HCl]', '1 (yes)'),
  ('C[C@H]1O[C@H](O[C@H]2[C@H](O)[C@@H](O)[C@@H](O[C@H]3[C@H](O)[C@@H](O)C(O)O[C@@H]3CO)O[C@@H]2CO)[C@H](O)[C@@H](O)[C@@H]1N[C@H]1C=C(CO)[C@@H](O)[C@H](O)[C@H]1O (stereo partly shown)', '1 (yes)'),
  ('C[N+]1(C)[C@@H]2C[C@@H](OC(=O)[C@H](CO)c3ccccc3)C[C@H]1[C@@H]1O[C@@H]12', '0 (no)'),
  ('O=C(O)C[C@H](O)C[C@H](O)/C=C/c1c(C2CC2)nc2ccccc2c1-c1ccc(F)cc1', '0 (no)');

Task: Check the entry CC(C(=O)O)c1ccc2c(c1)Cc1cccnc1O2 (stereo not shown) : does % Phosphatase Activity (compared to DMSO) PRL-1 equal or exceed 90%?
Result: 1 (yes)

Task: Given the entry CC1(C)S[C@@H]2[C@H](NC(=O)[C@H](NC(=O)N3CCNC3=O)c3ccccc3)C(=O)N2[C@H]1C(=O)O [Azlocillin sodium salt] , answer whether its % Phosphatase Activity (compared to DMSO) PRL-1 meets or surpasses 90%.
Result: 1 (yes)

Task: Identify whether the reported % Phosphatase Activity (compared to DMSO) PRL-1 of the following compound is 90% or greater: OCc1cc(C(O)CNCCCCCCOCCCCc2ccccc2)ccc1O (stereo not shown) [Salmeterol Xinafoate]
Result: 1 (yes)

Task: Does % Phosphatase Activity (compared to DMSO) PRL-1 meet or surpass 90% for O=C(NCCO[N+](=O)[O-])c1cccnc1 ?
Result: 0 (no)

Task: Hi team, for CN1C(CCl)Nc2cc(Cl)c(S(N)(=O)=O)cc2S1(=O)=O (stereo not shown) [Methyclothiazide] , is the recorded % Phosphatase Activity (compared to DMSO) PRL-1 at or above 90%?
Result: 1 (yes)

Task: Item O=C([O-])Cc1ccccc1Nc1c(Cl)cccc1Cl.[K+] with % Phosphatase Activity (compared to DMSO) PRL-1 of 90% or above?
Result: 1 (yes)

Task: Threshold query (% Phosphatase Activity (compared to DMSO) PRL-1 >= 90%) on Cc1cc(C(C#N)c2ccc(Cl)cc2)c(Cl)cc1NC(=O)c1cc(I)cc(I)c1O (stereo not shown) [Closantel, reference compound]
Result: 0 (no)

Task: Answer whether % Phosphatase Activity (compared to DMSO) PRL-1 of Cc1c(C(=O)Nc2ccc(N3C[C@@H](C)O[C@@H](C)C3)nc2)cccc1-c1ccc(OC(F)(F)F)cc1 is greater than or equal to 90%.
Result: 1 (yes)

Task: Textbook exercise: given the entry Oc1ncnc2[nH]ncc12 , state whether its % Phosphatase Activity (compared to DMSO) PRL-1 is greater than or equal to 90%.
Result: 1 (yes)
